The reported numbers originate from patent US5747490A.

Target sequence: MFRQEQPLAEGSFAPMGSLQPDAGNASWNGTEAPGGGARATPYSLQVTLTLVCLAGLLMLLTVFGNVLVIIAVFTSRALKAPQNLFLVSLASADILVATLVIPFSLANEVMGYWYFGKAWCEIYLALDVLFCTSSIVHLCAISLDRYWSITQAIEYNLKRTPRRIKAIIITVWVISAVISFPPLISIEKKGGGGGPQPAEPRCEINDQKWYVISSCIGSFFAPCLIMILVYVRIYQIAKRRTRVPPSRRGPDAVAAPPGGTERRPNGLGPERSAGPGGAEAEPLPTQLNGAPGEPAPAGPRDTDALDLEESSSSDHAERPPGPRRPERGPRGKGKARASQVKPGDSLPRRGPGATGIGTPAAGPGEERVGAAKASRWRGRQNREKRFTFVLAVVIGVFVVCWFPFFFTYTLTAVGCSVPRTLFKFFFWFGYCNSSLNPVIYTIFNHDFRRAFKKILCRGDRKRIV
endpointName: pKi
pKi here: minus log base 10 of the concentration, concentration in moles per litre.

Could you tell me which pKi is on file for `COc1cc2nc(N3CCN(C(=O)OCc4ccccc4)[C@H](C(=O)NC(C)(C)C)C3)nc(N)c2cc1OC` ?
6.17
